Target: T1, human glycophorin A on human red blood cells or red blood cell membranes (human, UniProt P02724 20-150)
T1 construct: whole, on cells; also called hRBC; human RBC membranes
T1 sequence (looked up): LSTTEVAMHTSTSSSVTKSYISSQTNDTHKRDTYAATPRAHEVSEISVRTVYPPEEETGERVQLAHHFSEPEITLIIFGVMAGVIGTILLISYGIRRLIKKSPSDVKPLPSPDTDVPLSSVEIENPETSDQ
Assay: scFv on intact human RBC, unbound scFv by ELISA; 5 min after 200-fold dilution
Give measured percentage of input scFv antibody bound for each item. Keep answers brief.
Numbers only, in %.

Worked cases, percentage of input scFv antibody bound given:
TPP-7797 scFv with C-terminal 6xHIS tag (scFv) scFv: DIQLTQSPSFLSASVGDRVTITCRASSSVRYIYWFQQKPGKAPKLLIYATSFRQSGVPSRFSGSGSGTEYTLTISSLQPEDFATYYCHQRNSFPYTFGQGTKLEIKGGGGSGGGGSGGGGSGGGGSEVQLVQSGAEVKKPGASVKVSCKASGYTFTTYTIHWVRQAPGQGLEWMGYINPSSGYTRYNPKFKGRVTMTRDKSTSTAYMELRSLRSDDTAVYYCWTGRRDYWGQGTTVTVSSHHHHHH | 98
TPP-7782 scFv with C-terminal 6xHIS tag (scFv) scFv: DIQLTQSPSFLSASVGDRVTITCRASSSVRYIYWFQQKPGKAPKLLIYATSFRQSGVPSRFSGSGSGTEYTLTISSLQPEDFATYYCHQRNSFPYTFGQGTKLEIKGGGGSGGGGSGGGGSGGGGSEVQLVQSGAEVKKPGASVKVSCKASGYTFTTYTIHWVRQAPGQGLEWMGYINPSSGYTRYNPKFKGRVTMTRDKSTSTAYMELRSLRSDDTAVYYCQTGTRDYWGQGTTVTVSSHHHHHH | 91

# context switch: different binder, same percentage of input scFv antibody bound
[in] I have this binder here, TPP-7790 scFv with C-terminal 6xHIS tag (scFv) scFv: DIQLTQSPSFLSASVGDRVTITCRASSSVRYIYWFQQKPGKAPKLLIYATSFLQSGVPSRFSGSGSGTEYTLTISSLQPEDFATYYCHQRNSFPYTFGQGTKLEIKGGGGSGGGGSGGGGSGGGGSEVQLVQSGAEVKKPGASVKVSCKASGYTFTTYAIHWVRQAPGQGLEWMGYINPSSGYTRYNPKFKHRVTMTRDKSTSTAYMELRSLRSDDTAVYYCWTGTRDYWGQGTTVTVSSHHHHHH , and I need its recorded percentage of input scFv antibody bound.
[out] 99
